System: CCRF-CEM cells
Test: Cell viability by CCK-8 and combination index, CCRF-CEM
Assay type: cell-based
Conditions: Homo sapiens, dexamethasone alone (original), read-out: concentration of dexamethasone at which 50% viability of CCRF-CEM cells (IC50 value) was inhibited
MEASURED_PROPERTY: IC50 (nM)
Quick note: give the figure in nM, leave out the unit.

Task: If you can, please state the reported IC50 value of C[C@@H]1C[C@H]2[C@@H]3CCC4=CC(=O)C=C[C@]4(C)[C@@]3(F)[C@@H](O)C[C@]2(C)[C@@]1(O)C(=O)CO .
Result: 300
